Molecular target: human TLR7 (Homo sapiens, UniProt Q9NYK1)
Construct: host or cells: HEK-Blue cells
Sequence (Q9NYK1 27-1049): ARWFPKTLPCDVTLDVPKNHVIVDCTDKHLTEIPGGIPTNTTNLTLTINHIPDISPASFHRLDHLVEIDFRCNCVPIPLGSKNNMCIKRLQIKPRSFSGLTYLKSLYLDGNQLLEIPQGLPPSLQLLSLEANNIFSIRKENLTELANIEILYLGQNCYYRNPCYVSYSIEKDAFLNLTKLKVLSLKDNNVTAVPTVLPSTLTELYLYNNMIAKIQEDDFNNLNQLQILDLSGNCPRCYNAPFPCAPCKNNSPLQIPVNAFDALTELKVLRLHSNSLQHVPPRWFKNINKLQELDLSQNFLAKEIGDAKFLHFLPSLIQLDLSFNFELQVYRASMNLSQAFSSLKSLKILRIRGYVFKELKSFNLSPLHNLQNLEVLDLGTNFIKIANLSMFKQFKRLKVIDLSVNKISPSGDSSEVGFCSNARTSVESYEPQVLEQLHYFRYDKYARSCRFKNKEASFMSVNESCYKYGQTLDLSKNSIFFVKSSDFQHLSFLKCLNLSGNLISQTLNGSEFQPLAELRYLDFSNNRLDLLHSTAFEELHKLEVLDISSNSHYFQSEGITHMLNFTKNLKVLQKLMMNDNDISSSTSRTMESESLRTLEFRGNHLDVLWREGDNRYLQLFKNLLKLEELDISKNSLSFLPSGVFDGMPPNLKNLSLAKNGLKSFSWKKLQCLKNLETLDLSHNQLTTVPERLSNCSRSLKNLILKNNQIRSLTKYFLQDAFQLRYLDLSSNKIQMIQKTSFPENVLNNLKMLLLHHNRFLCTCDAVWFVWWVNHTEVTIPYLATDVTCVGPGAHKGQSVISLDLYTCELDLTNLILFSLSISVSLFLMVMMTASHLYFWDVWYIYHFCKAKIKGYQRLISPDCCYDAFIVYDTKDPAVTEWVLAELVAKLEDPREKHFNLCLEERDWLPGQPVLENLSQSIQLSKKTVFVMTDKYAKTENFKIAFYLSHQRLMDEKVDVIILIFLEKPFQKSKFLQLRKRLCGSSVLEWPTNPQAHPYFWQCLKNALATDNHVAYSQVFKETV
Test: TLR7 inhibition reporter assay (HEK-Blue cells, SEAP reporter, gardiquimod stimulation)
Type: cell-based
Conditions: HEK-Blue cells overexpressing human TLR7, SEAP reporter, gardiquimod 7.5 μM; read-out: TLR7 IC50
From the text: TLR7/8/9 Inhibition Reporter Assays HEK-Blue™-cells (Invivogen) overexpressing human TLR7, TLR8 or TLR9 receptors were used for screening inhibitors of these receptors using an inducible SEAP (secreted embryonic alkaline phosphatase) reporter gene under the control of the IFN-β minimal promoter fused to five NF-κB and AP-1-binding sites. […]
measuredEndpoint: log10 IC50 (log10 of the value in nM)

[
  {
    "molecule": "CNC(=O)CNC1CCC(c2nc3c(C(C)C)c(-c4cn5ncnc5c(C)c4C)[nH]c3s2)CC1 (single isomer, unassigned) [Example 208]",
    "log10 IC50": 0.00
  },
  {
    "molecule": "Cc1cc2ncnn2cc1-c1[nH]c2sc(C3CCC(N4CCNC(=O)C4)CC3)nc2c1C(C)C (single isomer, unassigned) [Example 148]",
    "log10 IC50": 1.07
  },
  {
    "molecule": "Cc1c(-c2[nH]c3sc(C4CCC(NC5CCOCC5)CC4)nc3c2C(C)C)cn2ncnc2c1C (single isomer, unassigned) [Example 201]",
    "log10 IC50": 0.82
  },
  {
    "molecule": "CNC1CCC(c2nc3c(C(C)C)c(-c4cc(OC)c5ncnn5c4)[nH]c3s2)CC1 (single isomer, unassigned) [Example 75]",
    "log10 IC50": -0.05
  },
  {
    "molecule": "CNCCNC1CCC(c2nc3c(C(C)C)c(-c4cc(OC)c5ncnn5c4)[nH]c3s2)CC1 (single isomer, unassigned) [Example 170]",
    "log10 IC50": 0.38
  },
  {
    "molecule": "Cc1c(-c2[nH]c3sc(C4CCC(NCC(N)=O)CC4)nc3c2C(C)C)cn2ncnc2c1C (stereo not shown) [Example 211]",
    "log10 IC50": -0.10
  },
  {
    "molecule": "CC(=O)N1CCN(C(=O)c2nc3c(C(C)C)c(-c4cn5ncnc5c(C)c4C)[nH]c3s2)CC1",
    "log10 IC50": 1.30
  }
]
